Heads up, these compounds all have pIC50 values measured for Full length DGKα (D21-10BG, SignalChem) (Homo sapiens).
pIC50: −log10 of the molar value.
assayEndpoint: pIC50

Observe how each entry below is paired with its result.
{"compound": "CC[C@H]1CN(C(C)c2ccc(C3CC3)nc2)[C@H](CC)CN1c1c(C#N)c(=O)n(C)n2cc(CC#N)nc12 (single isomer, unassigned) [Compound A75b]", "measuredTarget": "Full length DGKα (D21-10BG, SignalChem) (Homo sapiens)", "assayEndpoint": "pIC50", "assayValue": 5.89}
{"compound": "CC#CCc1cn2c(n1)c(N1C[C@@H](CC)N(C(C)c3ccc4nc(C)sc4c3F)C[C@@H]1CC)cc(=O)n2C (single isomer, unassigned) [Compound A116b]", "measuredTarget": "Full length DGKα (D21-10BG, SignalChem) (Homo sapiens)", "assayEndpoint": "pIC50", "assayValue": 6.15}
{"compound": "CC[C@H]1CN(C(CCOC)c2ccc3nc(C)sc3c2)[C@H](CC)CN1c1cc(=O)n(C)n2cc(CC#N)nc12 (single isomer, unassigned) [Compound A102a]", "measuredTarget": "Full length DGKα (D21-10BG, SignalChem) (Homo sapiens)", "assayEndpoint": "pIC50", "assayValue": 6.42}

I = CCC(c1ccc(C(F)(F)F)cc1)N1C[C@H](CC)N(c2cc(=O)n(C)n3cc(CC#N)nc23)C[C@H]1CC (single isomer, unassigned) [Compound A77b]
II = CCc1nc2ccc(C(C)N3C[C@H](C)N(c4cc(=O)n(C)n5cc(CC#N)nc45)C[C@H]3CC)cc2s1 (single isomer, unassigned) [Compound A101a]
Which value of pIC50 is greater, the one for I or the one for II ? Give the label of your selection.
I

----------
target: Full length DGKζ (in-house protein M1-V929) (Homo sapiens, UniProt Q13574); construct: His (N); TEV cleavage site (N); experiment: Biochemical DGK IC50 assay (ADP-Glo, lipid micelle substrate), DGKζ; settings: 0.5 nM enzyme, 140 μM ATP, 80 μM DAG, 1 hour preincubation, 1 hour reaction, room temperature, read-out: IC50s for DGKζ
Sequence (Q13574 1-929 isoform Q13574-4): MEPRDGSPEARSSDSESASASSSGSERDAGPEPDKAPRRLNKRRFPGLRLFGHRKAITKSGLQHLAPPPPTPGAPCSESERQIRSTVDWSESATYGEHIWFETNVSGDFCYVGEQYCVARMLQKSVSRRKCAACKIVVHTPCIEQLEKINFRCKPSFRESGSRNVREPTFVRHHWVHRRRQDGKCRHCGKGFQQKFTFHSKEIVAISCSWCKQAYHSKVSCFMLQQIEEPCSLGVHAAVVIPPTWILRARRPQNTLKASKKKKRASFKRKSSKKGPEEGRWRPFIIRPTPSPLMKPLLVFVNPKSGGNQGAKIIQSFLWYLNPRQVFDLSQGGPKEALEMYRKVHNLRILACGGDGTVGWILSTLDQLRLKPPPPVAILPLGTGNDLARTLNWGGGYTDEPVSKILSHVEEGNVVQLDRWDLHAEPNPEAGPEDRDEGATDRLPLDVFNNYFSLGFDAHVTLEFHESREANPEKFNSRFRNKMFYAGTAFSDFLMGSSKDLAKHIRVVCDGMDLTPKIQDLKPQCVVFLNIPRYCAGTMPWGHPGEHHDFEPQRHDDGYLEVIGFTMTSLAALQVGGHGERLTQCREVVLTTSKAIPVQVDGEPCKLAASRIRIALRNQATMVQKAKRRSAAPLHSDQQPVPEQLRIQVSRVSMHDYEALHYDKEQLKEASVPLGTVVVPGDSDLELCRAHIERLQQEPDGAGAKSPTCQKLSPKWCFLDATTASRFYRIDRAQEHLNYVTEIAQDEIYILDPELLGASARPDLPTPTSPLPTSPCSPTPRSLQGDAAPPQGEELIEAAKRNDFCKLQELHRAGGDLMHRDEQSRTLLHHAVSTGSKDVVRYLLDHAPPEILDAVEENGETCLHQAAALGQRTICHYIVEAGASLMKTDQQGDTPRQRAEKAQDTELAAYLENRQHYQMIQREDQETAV
assayEndpoint: IC50 (nM)

a = CC[C@H]1CN(C(C)c2ccc3nccnc3c2)[C@H](CC)CN1c1cc(=O)n(C)n2cc(COC)nc12 (single isomer, unassigned) [Compound A8a]
b = CC[C@H]1CN(C(C)c2ccc3c(c2)OCO3)[C@H](CC)CN1c1cc(=O)n(C)n2cc(CC#N)nc12 (stereo partly drawn) [Compound A71]
c = CC[C@H]1CN(C(C)c2ccncc2)[C@H](CC)CN1c1cc(=O)n(C)n2cc(CC#N)nc12 (stereo partly drawn) [Compound A35]
Sort entries by IC50 from minimum to maximum value. Could you list the labels in the order requested?
a, b, c
(a: 25 nM, b: 61 nM, c: 3120 nM)

----------
target: Full length DGKα (D21-10BG, SignalChem) (Homo sapiens)
Sequence (P23743 whole entry): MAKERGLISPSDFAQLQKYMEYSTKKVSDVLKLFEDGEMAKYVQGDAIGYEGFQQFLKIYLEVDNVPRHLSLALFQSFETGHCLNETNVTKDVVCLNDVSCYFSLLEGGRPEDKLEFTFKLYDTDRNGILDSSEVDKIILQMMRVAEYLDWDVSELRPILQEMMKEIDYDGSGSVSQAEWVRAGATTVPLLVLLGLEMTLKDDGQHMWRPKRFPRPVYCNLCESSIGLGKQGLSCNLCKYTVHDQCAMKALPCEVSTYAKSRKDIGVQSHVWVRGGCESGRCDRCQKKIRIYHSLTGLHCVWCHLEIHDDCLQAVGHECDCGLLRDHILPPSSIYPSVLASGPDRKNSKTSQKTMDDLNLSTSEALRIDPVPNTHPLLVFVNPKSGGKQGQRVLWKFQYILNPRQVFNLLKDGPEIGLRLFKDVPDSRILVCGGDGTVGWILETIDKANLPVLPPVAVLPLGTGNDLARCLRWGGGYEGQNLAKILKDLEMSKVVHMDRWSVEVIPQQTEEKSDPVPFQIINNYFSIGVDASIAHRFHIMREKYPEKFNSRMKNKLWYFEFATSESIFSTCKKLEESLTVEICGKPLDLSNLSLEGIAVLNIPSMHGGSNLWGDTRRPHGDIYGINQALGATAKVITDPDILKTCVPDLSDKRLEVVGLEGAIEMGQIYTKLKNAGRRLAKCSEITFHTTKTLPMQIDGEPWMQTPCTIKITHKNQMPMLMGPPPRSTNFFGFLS
assayEndpoint: IC50 (nM)

{"compound": "CC[C@H]1CN(C(C)c2ccc3nc(C)sc3c2)[C@H](CC)CN1c1c(C#N)c(=O)n(C)n2cc(CC#N)nc12 (stereo partly drawn)", "IC50 / nM": 575}

A = CC[C@H]1CN(C(C)c2ccc(C3CC3(F)F)nc2)[C@H](CC)CN1c1cc(=O)n(C)n2cc(CC#N)nc12 (single isomer, unassigned) [Compound A70b]
B = CC[C@H]1CN(C(C)c2ccc3c(c2)OCO3)[C@H](CC)CN1c1cc(=O)n(C)n2cc(CC#N)nc12 (stereo partly drawn)
Identify the item whose IC50 is the smaller number: A or B Give the label of your selection.
B
(B: 66 nM, A: 466 nM)

----------
target: Full length DGKζ (in-house protein M1-V929) (Homo sapiens, UniProt Q13574); construct: His (N); TEV cleavage site (N); experiment: Biochemical DGK IC50 assay (ADP-Glo, lipid micelle substrate), DGKζ; conditions: 0.5 nM enzyme, 140 μM ATP, 80 μM DAG, 1 hour preincubation, 1 hour reaction, room temperature, read-out: IC50s for DGKζ
pIC50: −log10 of the molar value.
assayEndpoint: pIC50

Observe how each entry below is paired with its result.
{"molecule": "CC[C@H]1CN(C(C)c2ccc(C(C)(C)C#N)nc2)[C@H](CC)CN1c1cc(=O)n(C)n2cc(CC#N)nc12 (stereo partly drawn)", "pIC50": 6.91}
{"molecule": "CC[C@@H]1CN(c2c(C#N)c(=O)n(C)n3cc(CC#N)nc23)[C@@H](C)CN1C(C)c1ccc(C2CC2)nc1 (single isomer, unassigned) [Compound A74b]", "pIC50": 5.81}
{"molecule": "CC[C@@H]1CN(c2cc(=O)n(C)n3cc(CC#N)nc23)[C@@H](C)CN1C(C)c1ccc2nccnc2c1 (single isomer, unassigned) [Compound A13a]", "pIC50": 7.80}
{"molecule": "[2H]C([2H])([2H])C(c1ccc2nc(C)sc2c1)N1C[C@H](CC)N(c2cc(=O)n(C([2H])([2H])[2H])n3cc(CC#N)nc23)C[C@H]1CC (single isomer, unassigned) [Compound A95b]", "pIC50": 5.99}

P = CCc1nc2ccc(C(C)N3C[C@H](CC)N(c4cc(=O)n(C)n5cc(CC#N)nc45)C[C@H]3CC)cc2s1 (single isomer, unassigned) [Compound A100a]
Q = CC[C@H]1CN(C(C)c2ccc(C3CC3)nc2)[C@H](CC)CN1c1c(F)c(=O)n(C)n2cc(CC#N)nc12 (single isomer, unassigned) [Compound A73b]
R = CC[C@H]1CN(C(C)c2ccc3nccnc3c2)[C@H](CC)CN1c1cc(=O)n(C)n2cc(CC#N)nc12 (single isomer, unassigned) [Compound A14a]
S = CC[C@H]1CN(C(C)c2ccc(C3CC3)cn2)[C@H](CC)CN1c1cc(=O)n(C)n2cc(CC#N)nc12 (stereo partly drawn)
List these items ordered by pIC50, big to small. Could you list the labels in the order requested?
R, P, S, Q

----------
Target: Full length DGKζ (in-house protein M1-V929) (Homo sapiens, UniProt Q13574)
Construct: His (N); TEV cleavage site (N)
Test: Biochemical DGK IC50 assay (ADP-Glo, lipid micelle substrate), DGKζ
Details: 0.5 nM enzyme, 140 μM ATP, 80 μM DAG, 1 hour preincubation, 1 hour reaction, room temperature, read-out: IC50s for DGKζ
Method: Enzymatic reactions of DGKζ, DGKα and DGKδ were performed using ADP-Glo assay with lipid micelle substrate. […] Full length DGKα (D21-10BG, SignalChem) and full length DGKδ (D23-10G, SignalChem) were purchased. Lipid micelle was prepared by dissolving DAG (Sigma, 317505-10MG) and PS (Sigma, P7769-100MG) with chloroform which was firtherly removed by rotary evaporation. […]
assayEndpoint: IC50 (µM)

{"compound": "CC[C@H]1CN(C(C)c2ccc3nc(C4CC4)sc3n2)[C@H](CC)CN1c1cc(=O)n(C)n2cc(CC#N)nc12 (single isomer, unassigned) [Compound A109b]", "measuredTarget": "Full length DGKζ (in-house protein M1-V929) (Homo sapiens, UniProt Q13574)", "IC50, µM": 0.028}
{"compound": "CC[C@@H]1CN(c2cc(=O)n(C)n3cc(CC#N)nc23)[C@@H](C)CN1C(C)c1ccc2cc(C)sc2n1 (stereo partly drawn)", "measuredTarget": "Full length DGKζ (in-house protein M1-V929) (Homo sapiens, UniProt Q13574)", "IC50, µM": 0.011}
{"compound": "CC[C@H]1CN(C(C)c2ccc3nc(C)sc3n2)[C@H](CC)CN1c1cc(=O)n(C)n2cc(CC#N)nc12 (single isomer, unassigned) [Compound A58a]", "measuredTarget": "Full length DGKζ (in-house protein M1-V929) (Homo sapiens, UniProt Q13574)", "IC50, µM": 2.16}
{"compound": "Cc1cnc2ccc(C(C)N3C[C@H](C)N(c4c(F)c(=O)n(C)n5cc(CC#N)nc45)C[C@H]3C)cc2n1 (stereo partly drawn)", "measuredTarget": "Full length DGKζ (in-house protein M1-V929) (Homo sapiens, UniProt Q13574)", "IC50, µM": 0.095}

a = CC[C@H]1CN(C(C)c2ccc(F)cc2C(F)F)[C@H](CC)CN1c1cc(=O)n(C)n2cc(CC#N)nc12 (stereo partly drawn)
b = CC[C@@H]1CN(c2cc(=O)n(C)n3cc(CC#N)nc23)[C@@H](C)CN1C(C)c1ccc(C(F)(F)F)cc1F (single isomer, unassigned) [Compound A17a]
Which value of IC50 is greater, the one for a or the one for b ? Give the label of your selection.
b
(b: 0.108 µM, a: 0.014 µM)

a = CC[C@@H]1CN(c2cc(=O)n(C)n3cc(CC#N)nc23)[C@@H](COC)CN1C(C)c1ccc2nc(C)sc2n1 (single isomer, unassigned) [Compound A108b]
b = CC[C@H]1CN(C(C)c2ccc3nc(C)sc3c2F)[C@H](C)CN1c1cc(=O)n(C)n2cc(CC#N)nc12 (single isomer, unassigned) [Compound A119b]
c = CC[C@H]1CN(C(C)c2ccc(C3CC3)nc2)[C@H](CC)CN1c1c(C#N)c(=O)n(C)n2cc(CC#N)nc12 (single isomer, unassigned) [Compound A75a]
d = CC[C@H]1CN(C(C)c2ccc(OC(C)C)nc2)[C@H](CC)CN1c1cc(=O)n(C)n2cc(CC#N)nc12 (single isomer, unassigned) [Compound A45b]
Exam item: list the entries in increasing order of IC50. Could you list the labels in the order requested?
b, a, c, d

Attribution: patent US20240327417A1
